# measurement target: human NK2-receptor (Homo sapiens)
# Sequence (P21452 whole entry): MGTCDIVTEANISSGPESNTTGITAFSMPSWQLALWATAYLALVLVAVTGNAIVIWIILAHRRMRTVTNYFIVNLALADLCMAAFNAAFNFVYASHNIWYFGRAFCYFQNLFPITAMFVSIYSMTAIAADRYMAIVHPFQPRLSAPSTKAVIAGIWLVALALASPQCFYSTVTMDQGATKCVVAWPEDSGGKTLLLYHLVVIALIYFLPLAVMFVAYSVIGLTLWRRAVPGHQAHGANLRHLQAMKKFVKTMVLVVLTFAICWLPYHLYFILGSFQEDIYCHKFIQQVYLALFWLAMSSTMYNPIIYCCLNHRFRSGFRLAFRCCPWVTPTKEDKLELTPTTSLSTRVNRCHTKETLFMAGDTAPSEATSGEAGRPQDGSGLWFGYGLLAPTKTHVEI
# assay info: Binding potency of the test substances to NK2-receptors in vitro ([3H]-SR 48968 displacement)
# Parameters: expressed in transfected cells; host or cells: CHO cells (membrane preparation)
# applied conditions: human NK2-receptor in CHO cell membranes, [3H]-SR 48968 (saredutant); average of at least three measurements; read-out: pKi, binding potency to NK2-receptors (converted)
experimental endpoint: Ki (nM)

Completed entries (count: 4):
>>> result_value("CN(C)C(=O)C1(N2CCCCC2)CCN(CCC(CN(C)C(=O)c2cccc3ccccc23)c2ccc(Cl)c(Cl)c2)CC1 (centres unmarked) [compound 92]")
20
>>> result_value("CN(C)C(=O)C1(N2CCCCC2)CCN(CCC(CN(C)C(=O)c2cnccn2)c2ccc(Cl)c(Cl)c2)CC1 (centres unmarked) [compound 42]")
15.8
>>> result_value("CN(C)C(=O)C1(N2CCCCC2)CCN(CCC(CN(C)C(=O)c2ccccn2)c2ccc(Cl)c(Cl)c2)CC1 (centres unmarked) [compound 43]")
0.251
>>> result_value("CC(=O)N1CCC(C(=O)N(C)CC(CCN2CCC(C(=O)N(C)C)(N3CCCCC3)CC2)c2ccc(Cl)c(Cl)c2)CC1 (centres unmarked) [compound 52]")
15.8

P: CN(C)C(=O)C1(N2CCCCC2)CCN(CCC(CN(C)C(=O)c2c(Cl)cccc2Cl)c2ccc(Cl)c(Cl)c2)CC1 (centres unmarked) [compound 76]
Q: CN(CC(CCN1CCC(C(=O)N2CCCCC2)(N2CCCCC2)CC1)c1ccc(Cl)c(Cl)c1)C(=O)c1cc(C#N)cc2ccccc12 (centres unmarked) [compound 125]
R: CN(C)C(=O)C1(N2CCCCC2)CCN(CCC(CN(C)C(=O)c2ccco2)c2ccc(Cl)c(Cl)c2)CC1 (centres unmarked) [compound 31]
S: CN(C)C(=O)C1(N2CCCCC2)CCN(CCC(CN(C)C(=O)c2ccc(S(N)(=O)=O)cc2)c2ccc(Cl)c(Cl)c2)CC1 (centres unmarked) [compound 46]
# rank_down: sort by Ki, max first Answer format: the labels, in the requested order.
Q, P, S, R
(Q: 50.1 nM, P: 15.8 nM, S: 6.31 nM, R: 3.98 nM)

I: CN(C)C(=O)C1(N2CCCCC2)CCN(CCC(CN(C)C(=O)c2cc3ccccc3[nH]2)c2ccc(Cl)c(Cl)c2)CC1 (centres unmarked) [compound 39]
II: CN(C)C(=O)C1(N2CCCCC2)CCN(CC[C@H](CN(C)C(=O)c2ccccc2)c2ccc(Cl)c(Cl)c2)CC1 [compound 1]
Between the entries labelled I and II , which has a larger Ki value on record? Record your answer as the label of the chosen record.
I

I: CN(C)C(=O)C1(N2CCCCC2)CCN(CCC(CN(C)C(=O)c2ccc(OC(F)(F)F)cc2)c2ccc(Cl)c(Cl)c2)CC1 (centres unmarked) [compound 26]
II: CN(C)C(=O)C1(N2CCCCC2)CCN(CCC(CN(C)C(=O)CC(c2ccccc2)c2ccccc2)c2ccc(Cl)c(Cl)c2)CC1 (centres unmarked) [compound 28]
Between the entries labelled I and II , which has a larger Ki value on record? Record your answer as the label of the chosen record.
II
(II: 20 nM, I: 5.01 nM)

Reference source: patent US20070219214A1
